System: ADRβ2
Assay: PBK modelling-based reverse dosimetry of in vitro EC50 to ED50, ADRβ2
Details: predicted human oral ED50 from in vitro EC50 (Pinckaers et al. [2024]) and modelled Cmax plasma venous
value kind: ADRβ2 ED50

Ask: Which ADRβ2 ED50 is listed for Oc1ccc(CC2NCCc3cc(O)c(O)cc32)cc1 (centres unmarked) ?
Reply: 2.92 mg/kg bw

---

Assay: in vitro
Settings: human, Caco-2, pH 7.4, Papp A-B corrected, corrected for the difference between Papp A-B of metoprolol in this study and in literature
Procedure: Caco-2 cells (ATCC, Manassas, VA, USA; passage 30–44) were cultured in DMEM (Gibco, New York, USA) containing 4.5 g/L d-glucose, 4 mM L-glutamine and supplemented with 10% FBS (Gibco, Grand Island, NY, USA), 1% minimal essential medium non-essential amino acids (Gibco, Paisley, UK), 100 units/mL penicillin and 100 µg/mL streptomycin (Gibco, Grand Island, NY, USA). […]
value kind: Papp A→B at 60 min, 10 µM (×10⁻⁶ cm/s)
Express the result in ×10⁻⁶ cm/s but write the number alone.

Ask: What value of Papp A→B at 60 min, 10 µM has been reported for the following molecule? NCC(O)c1ccc(O)cc1 (centres unmarked) [p-Octopamine, octopamine]
Reply: 0.584

Ask: Give its Papp A→B at 60 min, 10 µM value. Item: CN(C)CCc1ccccc1 [Dimethylphenethylamine, N,N-dimethylphenethylamine]
Reply: 53.5

Ask: Request the reported Papp A→B at 60 min, 10 µM associated with NCCc1ccccc1 [Phenethylamine, phenethylamine]
Reply: 10.5

Ask: Papp A→B at 60 min, 10 µM for CN(C)CCc1ccc(O)cc1 [Hordenine, hordenine] ?
Reply: 47.3

Ask: What Papp A→B at 60 min, 10 µM value was documented for this molecule, NCCc1ccc(O)cc1 [Tyramine, tyramine] ?
Reply: 8.7

Ask: Dear colleague, I am looking for the recorded Papp A→B at 60 min, 10 µM of the following molecule: Oc1ccc(CC2NCCc3cc(O)c(O)cc32)cc1 (centres unmarked) [Higenamine, higenamine]
Reply: 0.223

Ask: Query: Papp A→B at 60 min, 10 µM; subject: CNC(C)C(O)c1ccc(O)cc1 (centres unmarked) [Methylsynephrine]
Reply: 1.3

Ask: Report Papp A→B at 60 min, 10 µM for CC(CN)c1ccccc1 (stereo not drawn) [β-Methylphenethylamine, β-methylphenethylamine] please.
Reply: 57.6

Ask: Bench note: what Papp A→B at 60 min, 10 µM did CC(C)NCC(O)c1ccc(O)cc1 (centres unmarked) [Isopropyloctopamine, isopropyloctopamine] show?
Reply: 2.56

Ask: Please report the recorded Papp A→B at 60 min, 10 µM for CNCC(O)c1ccccc1 (centres unmarked) [Halostachine, halostachine] .
Reply: 47.8

Ask: Look up Papp A→B at 60 min, 10 µM: CNCC(O)c1ccc(O)cc1 (centres unmarked) [p-Synephrine, Synephrine]
Reply: 3.47

---

Experiment: in vitro
Conditions: human, Caco-2, pH 7.4, Recovery (B-A), Caco-2, B-A experiments, after 60 min, mean ± SD
Answer each item with its documented recovery at 60 min, 10 µM.
Write the answer as a number in %, unit excluded.

Ask: Any idea what recovery at 60 min, 10 µM was measured for NCC(O)c1ccc(O)cc1 (centres unmarked) [p-Octopamine, octopamine] ?
Reply: 109

Ask: State the recorded recovery at 60 min, 10 µM for this entry: CNCC(O)c1ccccc1 (centres unmarked) [Halostachine, halostachine]
Reply: 93.9

Ask: What value of recovery at 60 min, 10 µM has been recorded for this entry: NCCc1ccccc1 [Phenethylamine, phenethylamine]
Reply: 103

Ask: Entry CN(C)CCc1ccccc1 [Dimethylphenethylamine, N,N-dimethylphenethylamine] has what recovery at 60 min, 10 µM?
Reply: 93.3

Ask: What does the record list as recovery at 60 min, 10 µM for CNCC(O)c1ccc(O)cc1 (centres unmarked) [p-Synephrine, Synephrine] ?
Reply: 100

Ask: Which recovery at 60 min, 10 µM value is on record for CC(C)NCC(O)c1ccc(O)cc1 (centres unmarked) [Isopropyloctopamine, isopropyloctopamine] ?
Reply: 76.5

Ask: // lookup recovery at 60 min, 10 µM for Oc1ccc(CC2NCCc3cc(O)c(O)cc32)cc1 (centres unmarked) [Higenamine, higenamine]
Reply: 105

Ask: Entry CC(CN)c1ccccc1 (stereo not drawn) [β-Methylphenethylamine, β-methylphenethylamine] has what recovery at 60 min, 10 µM?
Reply: 89.3

Ask: What measured recovery at 60 min, 10 µM goes with CN(C)CCc1ccc(O)cc1 [Hordenine, hordenine] ?
Reply: 107

Ask: Request the reported recovery at 60 min, 10 µM associated with NCCc1ccc(O)cc1 [Tyramine, tyramine]
Reply: 84

Ask: I am curious: what recovery at 60 min, 10 µM value has been reported for CNC(C)C(O)c1ccc(O)cc1 (centres unmarked) [Methylsynephrine] ?
Reply: 102
